target: UDP-N-acetylglucosamine 1-carboxyvinyltransferase (Escherichia coli K-12); assay: Inhibition of wild type his tagged Escherichia coli K12 MurA at 20 uM using UDP-N-acetylglucosamine as substrate preincubated with substrate for 30 mins prior to compound addition for 15 mins followed by DTT and PEP addition and measured after 30 mins by malachite green based microplate reader analysis relative to control; settings: time 45.0 min
reportedMetric: inhibition

For this molecule ( CCOC(=O)C1=C(O)C(=O)N(c2nc3ccc(C)cc3s2)C1c1ccc(OC)c2ccccc12 (stereo not given) ), measured inhibition is 74%

For this molecule ( CCOC(=O)C1=C(O)C(=O)N(Cc2ccc(Cl)cc2)C1c1ccc(-c2ccccc2)cc1 (stereo not given) ), measured inhibition is 40%

For this molecule ( CCOC(=O)C1=C(O)C(=O)N(c2nc3ccc(C)cc3s2)C1c1nc2ccccc2s1 (stereo not given) ), measured inhibition is 12%

For this molecule ( CCOC(=O)C1=C(O)C(=O)N(c2nc3ccc(C)cc3s2)C1c1ccccc1 (stereo not given) ), measured inhibition is 26%

For this molecule ( CCOC(=O)C1=C(O)C(=O)N(c2nc3ccc(OC)cc3s2)C1c1ccc(-c2ccccc2)cc1 (stereo not given) ), measured inhibition is 51%
